runDescription: Brain-to-plasma ratio after oral gavage or intranasal administration (Example 4)
Format: in vivo, Sprague-Dawley rats
conditionInfo: Sprague-Dawley, rat, in vivo, 10 mg/kg, Group 1; OG, 10 mg/kg; 30 min; read-out: Plasma Conc.
measurementType: concentration at 30 min (ng/mL)
Dear colleague, please return just the value in ng/mL, with no unit written.

Exam item: Please give the measured concentration at 30 min for this molecule: CN[C@@H](C)C/C=C/c1cncc(OC)c1
Marked response: 174

* * *

runDescription: Permeation across cultured human respiratory epithelium (EpiAir tissue), apical-to-basolateral Papp
conditionInfo: human, pH 7.4, Papp, Treatment 3: MAO substrate Phenylethylamine assayed with controls; Rep 1
measurementType: Papp at 120 min (×10⁻⁶ cm/s)
Dear colleague, please return just the value in ×10⁻⁶ cm/s, with no unit written.

Exam item: Please give the measured Papp at 120 min for this compound: NCCc1ccccc1 [Phenylethylamine]
Marked response: 18.8
